# system: C-Raf FL (full length CRAF with Y340E and Y341E activating mutations, co-expressed with h14-3-3 zeta) (Homo sapiens (Human), UniProt P04049, Y340E/Y341E)
# Sequence (P04049 whole entry Y340E/Y341E): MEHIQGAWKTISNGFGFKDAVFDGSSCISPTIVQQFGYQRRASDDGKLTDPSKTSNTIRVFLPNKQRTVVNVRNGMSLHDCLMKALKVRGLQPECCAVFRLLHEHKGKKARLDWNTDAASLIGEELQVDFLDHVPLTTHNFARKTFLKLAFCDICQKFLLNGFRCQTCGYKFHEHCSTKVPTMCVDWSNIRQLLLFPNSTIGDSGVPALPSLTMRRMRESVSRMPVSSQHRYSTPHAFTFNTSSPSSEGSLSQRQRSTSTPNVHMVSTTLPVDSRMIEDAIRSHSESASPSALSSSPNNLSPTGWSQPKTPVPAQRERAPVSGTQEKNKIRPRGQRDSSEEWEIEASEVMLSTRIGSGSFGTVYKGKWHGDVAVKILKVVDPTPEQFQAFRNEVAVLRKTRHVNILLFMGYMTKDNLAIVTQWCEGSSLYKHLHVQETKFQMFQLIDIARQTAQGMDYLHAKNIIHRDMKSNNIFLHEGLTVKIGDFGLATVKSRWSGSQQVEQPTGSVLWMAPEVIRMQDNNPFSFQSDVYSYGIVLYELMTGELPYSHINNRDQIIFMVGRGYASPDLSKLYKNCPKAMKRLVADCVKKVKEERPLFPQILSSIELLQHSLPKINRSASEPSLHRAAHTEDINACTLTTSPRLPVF
# Sequence (P63104 whole entry partner): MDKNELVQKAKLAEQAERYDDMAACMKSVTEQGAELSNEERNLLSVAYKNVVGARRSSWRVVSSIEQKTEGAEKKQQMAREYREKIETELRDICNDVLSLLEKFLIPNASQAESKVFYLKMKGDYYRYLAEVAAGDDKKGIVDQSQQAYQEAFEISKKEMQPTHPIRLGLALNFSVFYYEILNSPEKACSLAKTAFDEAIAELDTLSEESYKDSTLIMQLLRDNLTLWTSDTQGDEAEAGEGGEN
# method-summary: In vitro Raf activity determination, AlphaScreen p-MEK readout, c-Raf (C-Raf FL)
# measurement-conditions: c-Raf approximately 4 nM, ATP 1 μM, pre-incubation 60 minutes, reaction 1 hour
pIC50: −log10 of the molar value.
measurement-kind: pIC50

CCN1C[C@@H]2COCC[C@H]2c2cc(-c3cc(NC(=O)c4cccc(C(F)(F)F)c4F)cnc3C)cnc21 [Example 294]
10.00
Cc1ccc(NC(=O)c2ccnc(C(F)(F)F)c2)cc1-c1cnc2c(c1)C1(C)CCOCCC1C(=O)N2CCO (single isomer, unassigned) [Example 356]
10.00
CCN1C(=O)C[C@H]2COCCN2c2cc(-c3cc(NC(=O)c4ccnc(C(C)(F)F)c4)ccc3C)cnc21 [Example 127]
10.32
Cc1ncc(NC(=O)c2cccc(C(F)(F)F)c2)cc1-c1cnc2c(c1)N1CCOC[C@H]1[C@@H](CO)C2 [Example 490]
9.30
Cc1ncc(NC(=O)c2ccnc(C(C)(F)F)c2)cc1-c1ccc2c(c1)N1CCOC[C@H]1[C@](F)(CF)C2 [Example 467]
8.72
Cc1ccc(NC(=O)c2ccnc(C(F)(F)F)c2)cc1-c1cnc2c(c1)N1CCOC[C@H]1[C@@H](C(C)(C)O)C2 [Example 451]
9.22
Cc1ccc(NC(=O)c2ccnc(C(F)(F)F)c2F)cc1-c1cc2n(c(=O)c1)CC[C@H]1COCCN21 [Example 416]
9.40

###

# system: C-Raf FL (full length CRAF with Y340E and Y341E activating mutations, co-expressed with h14-3-3 zeta) (Homo sapiens (Human), UniProt P04049, Y340E/Y341E)
# method-summary: In vitro Raf activity determination, AlphaScreen p-MEK readout, c-Raf (C-Raf FL)
# measurement-conditions: c-Raf approximately 4 nM, ATP 1 μM, pre-incubation 60 minutes, reaction 1 hour
pIC50: −log10 of the molar value.
// values below are reported pIC50
measurement-kind: pIC50

Cc1ccc(NC(=O)c2ccnc(C(C)(F)F)c2)cc1-c1ccc2c(c1)N1CCOC[C@H]1[C@H](C#N)C2 (racemic) [Example 90]
10.64
Cc1ccc(NC(=O)c2ccnc(C(C)(C)F)c2)cc1-c1cc2n(c(=O)c1)CCC1CCOCCN21 (stereo in doubt) [Example 418]
8.68
CCNC(=O)C1Cc2ccc(-c3cc(NC(=O)c4ccnc(C(F)(F)F)c4)ccc3C)cc2N2CCOCC12 (racemic) [Example 73]
9.70
CCN1C[C@@H]2COCCN2c2cc(-c3cc(NC(=O)c4cccc(C(F)(F)F)c4)cnc3C)cnc2C1=O [Example 501]
9.70
Cc1ccc(NC(=O)c2ccnc(C(F)(F)F)c2)cc1-c1ccc2c(c1)N1CCOCC1CC2 (racemic) [Example 21]
11.92
Cc1ccc(NC(=O)c2ccnc(C(C)(C)F)c2)cc1-c1cnc2c(c1)N1CCOC[C@H]1C[C@@H]2O (racemic) [Example 141]
11.38
Cc1ccc(NC(=O)c2cnnc(C(F)(F)F)c2)cc1-c1cc(F)c2c(c1)N1CCOC[C@H]1[C@](F)(CO)C2 [Example 423]
9.15
Cc1ccc(NC(=O)c2ccnc(C(C)(F)F)c2)cc1-c1ccc2c(c1)N1CCOC[C@H]1C[C@@]2(C)O [Example 24]
10.31
Cc1ccc(NC(=O)c2ccnc(C(F)(F)F)c2)cc1-c1cnc2c(c1)N1CCOC[C@H]1CC(=O)N2CC(C)(C)O [Example 288]
9.05
Cc1ccc(NC(=O)c2ccnc(C(C)(F)F)c2)cc1-c1cnc2c(c1)N1CCOCC1CC2O (racemic) [Example 107]
10.72
CCN1C(=O)[C@@H]2COCC[C@H]2c2cc(-c3cc(NC(=O)c4ccnc(C(C)(C)F)c4)ccc3C)cnc21 [Example 254]
9.70
Cc1ccc(NC(=O)c2cnnc(C(F)(F)F)c2)cc1-c1cnc2c(c1)N1CCOC[C@@H]1CC(=O)N2CCO [Example 324]
9.10
Cc1ccc(NC(=O)c2ccnc(C(C)(F)F)c2)cc1-c1cnc2c(c1)N1CCOC[C@H]1[C@@H](CO)C2 [Example 492]
9.70
Cc1ccc(NC(=O)c2ccnc(C(F)(F)F)c2)cc1-c1cnc2c(c1)N1CCOC[C@@H]1[C@@](C)(C#N)C2 [Example 378]
9.70
Cc1ccc(NC(=O)c2ccnc(C(C)(F)F)c2)cc1-c1ccc2c(c1)N1CCOC[C@@H]1C(CO)(CO)C2 [Example 53]
11.21
Cc1ccc(NC(=O)c2ccnc(C(C)(F)F)c2)cc1-c1cnc2c(c1)N1CCOC[C@H]1CC(=O)N2CC(C)(C)O [Example 289]
9.05
Cc1ccc(NC(=O)c2ccnc(C(C)(C)F)c2)cc1-c1ccc2c(c1)N1CCOC[C@H]1[C@](F)(CO)C2 [Example 386]
9.52
Cc1ncc(NC(=O)c2ccnc(C(C)(F)F)c2)cc1-c1ccc2c(c1)N1CCOC[C@H]1[C@@](C)(C#N)C2 [Example 375]
9.40
CCN1C[C@@H]2COCC[C@H]2c2cc(-c3cc(NC(=O)c4cccc(C(F)(F)F)c4)cnc3C)cnc21 [Example 295]
10.00
Cc1ncc(NC(=O)c2cccc(C(F)(F)F)c2)cc1-c1cnc2c(c1)N1CCOC[C@@H]1[C@H](CO)C2 [Example 493]
10.00
Cc1ccc(NC(=O)c2ccnc(C(F)(F)F)c2)cc1-c1ccc2c(c1)N1CCOC[C@@H]1[C@](F)(CO)C2 [Example 399]
9.52
Cc1ccc(NC(=O)c2ccnc(C(C)(F)F)c2)cc1-c1cnc2c(c1)N1CCOC[C@H]1C[C@H]2O [Example 108]
10.89
Cc1ccc(NC(=O)c2cnnc(C(F)(F)F)c2)cc1-c1ccc2c(c1)N1CCOC[C@@H]1[C@](F)(CO)C2 [Example 403]
10.00
Cc1ccc(NC(=O)c2ccnc(C(C)(F)F)c2)cc1-c1ccc2c(c1)N1CCOCC1CC2O (racemic) [Example 16]
10.26
Cc1ccc(NC(=O)c2ccnc(C(C)(F)F)c2)cc1-c1ccc2c(c1)N1CCOC[C@@H]1[C@@H](C(=O)O)C2 (racemic) [Example 100]
10.43
Cc1ncc(NC(=O)c2cccc(C(F)(F)F)c2)cc1-c1cnc2c(c1)N1CCOC[C@@H]1[C@H](CO)C2 (racemic) [Example 119]
11.00

###

// values below are reported IC50
# system: C-Raf FL (full length CRAF with Y340E and Y341E activating mutations, co-expressed with h14-3-3 zeta) (Homo sapiens (Human), UniProt P04049, Y340E/Y341E)
# method-summary: In vitro Raf activity determination, AlphaScreen p-MEK readout, c-Raf (C-Raf FL)
# measurement-conditions: c-Raf approximately 4 nM, ATP 1 μM, pre-incubation 60 minutes, reaction 1 hour
measurement-kind: IC50 (nM)

CCN1C(=O)[C@H]2[C@@H]3COC[C@@H]3[C@H]2c2cc(-c3cc(NC(=O)c4cncc(C(F)(F)F)c4)ccc3C)cnc21
0.1
Cc1ccc(NC(=O)c2ccnc(C(F)(F)F)c2)cc1-c1cnc2c(c1)N1CCOCC1C(F)(F)C2O (racemic)
0.011
Cc1ncc(NC(=O)c2cccc(C(F)(F)F)c2)cc1-c1cnc2c(c1)[C@@H]1CCOC[C@H]1C(=O)N2C(C)C
0.7
Cc1ncc(NC(=O)c2cccc(C(F)(F)F)c2)cc1-c1cnc2c(c1)N1CCOC[C@@H]1[C@H](C(C)(C)O)C2
0.7
Cc1ccc(NC(=O)c2ccnc(C(C)(F)F)c2)cc1-c1cnc2c(c1)N1CCOC[C@H]1C[C@H]2OCCO
0.1
CCN1C(=O)Cc2nncn2-c2cc(-c3cc(NC(=O)c4ccnc(C(C)(F)F)c4)ccc3C)cnc21 (racemic)
1.3

###

# system: C-Raf FL (full length CRAF with Y340E and Y341E activating mutations, co-expressed with h14-3-3 zeta) (Homo sapiens (Human), UniProt P04049, Y340E/Y341E)
# method-summary: In vitro Raf activity determination, AlphaScreen p-MEK readout, c-Raf (C-Raf FL)
# measurement-conditions: c-Raf approximately 4 nM, ATP 1 μM, pre-incubation 60 minutes, reaction 1 hour
pIC50: −log10 of the molar value.
Output criterion met for pIC50 not less than 10; output criterion not met otherwise.

Cc1ccc(NC(=O)c2ccnc(C(F)(F)F)c2)cc1-c1cc(F)c2c(c1)N1CCOC[C@@H]1[C@@](F)(CO)C2
criterion not met
CCN1C(=O)OC2COCCC2c2cc(-c3cc(NC(=O)c4cccc(C(F)(F)F)c4F)cnc3C)cnc21 (stereo not shown)
criterion not met
CCN1C(=O)CC2CCOCCN2c2cc(-c3cc(NC(=O)c4ccnc(C(F)(F)F)c4)ccc3C)cnc21 (stereo not shown) [Example 314]
criterion not met
CCN1C[C@@H]2COCCN2c2cc(-c3cc(NC(=O)c4ccnc(C(C)(F)F)c4)ccc3C)cnc2C1=O
criterion not met
Cc1ncc(NC(=O)c2cccc(C(F)(F)F)c2)cc1-c1cnc2c(c1)N1CCOC[C@H]1C[C@H]2O
criterion met
